test: Cmax in specific pathogen free ICR mouse at 25 mg/kg, po administered as single dose by HPLC analysis; type: ADME, organism-based; parameters: dose 25 mg/kg, route oral; details: in vivo
value.type: log10 of Cmax (log10 of the value in ng/mL)
Transform log10 | Measure Cmax | Unit ng/mL

Hello, please tell me recorded log10 of Cmax for this one: CCc1nc2ccc(Cl)cn2c1C(=O)NCc1ccc2c(c1)CN(Cc1ccc(OC(F)(F)F)cc1)C2
3.12

Hello, please tell me recorded log10 of Cmax for this one: CCc1nc2ccc(Cl)cn2c1C(=O)NCc1ccc2c(c1)CCN(CCc1ccc(C(F)(F)F)nc1)C2
3.21

Hello, please tell me recorded log10 of Cmax for this one: CCc1nc2ccc(Cl)cn2c1C(=O)NCc1ccc2c(c1)CCN(Cc1ccc(C(F)(F)F)cn1)C2
3.91

Hello, please tell me recorded log10 of Cmax for this one: CCc1nc2ccc(Cl)cn2c1C(=O)NCc1ccc2c(c1)CCN(CCc1ccc(C(F)(F)F)cn1)C2
4.34

Hello, please tell me recorded log10 of Cmax for this one: CCc1nc2ccc(Cl)cn2c1C(=O)NCc1ccc2c(c1)CCN(Cc1ccc(C(F)(F)F)cc1)C2
3.48

Hello, please tell me recorded log10 of Cmax for this one: CCc1nc2ccc(Cl)cn2c1C(=O)NCc1ccc2c(c1)CN(C(C)c1ccc(OC(F)(F)F)cc1)C2 (centres undefined)
3.60

Hello, please tell me recorded log10 of Cmax for this one: CCc1nc2ccc(Cl)cn2c1C(=O)NCc1ccc(N2CCC(c3ccc(OC(F)(F)F)cc3)CC2)cc1
3.58

Hello, please tell me recorded log10 of Cmax for this one: CCc1nc2cc(Cl)ccn2c1C(=O)NCc1ccc2c(c1)CCN(Cc1cc(F)cc(F)c1)C2
3.73

Hello, please tell me recorded log10 of Cmax for this one: CCc1nc2ccc(Cl)cn2c1C(=O)NCc1ccc2c(c1)CCN(Cc1ccc(C(C)(C)C)cc1)C2
3.03

* * *

test: Tmax in specific pathogen free ICR mouse at 25 mg/kg, po administered as single dose by HPLC analysis; format: ADME, organism-based; conditions: in vivo
value.type: Tmax (min)
Numbers only here, please. The scale is min.

Hello, please tell me recorded Tmax for this one: CCc1nc2ccc(Cl)cn2c1C(=O)NCc1ccc2c(c1)CCN(Cc1ccc(C(F)(F)F)cn1)C2
35

Hello, please tell me recorded Tmax for this one: CCc1nc2ccc(Cl)cn2c1C(=O)NCc1ccc2c(c1)CN(Cc1ccc(OC(F)(F)F)cc1)C2
25

Hello, please tell me recorded Tmax for this one: CCc1nc2ccc(Cl)cn2c1C(=O)NCc1ccc(N2CCC(c3ccc(OC(F)(F)F)cc3)CC2)cc1
160

Hello, please tell me recorded Tmax for this one: CCc1nc2ccc(Cl)cn2c1C(=O)NCc1ccc2c(c1)CCN(CCc1ccc(C(F)(F)F)cn1)C2
15

Hello, please tell me recorded Tmax for this one: CCc1nc2ccc(Cl)cn2c1C(=O)NCc1ccc2c(c1)CCN(CCc1ccc(C(F)(F)F)nc1)C2
15

Hello, please tell me recorded Tmax for this one: CCc1nc2ccc(Cl)cn2c1C(=O)NCc1ccc2c(c1)CCN(Cc1ccc(C(C)(C)C)cc1)C2
30

Hello, please tell me recorded Tmax for this one: CCc1nc2ccc(Cl)cn2c1C(=O)NCc1ccc2c(c1)CCN(Cc1ccc(C(F)(F)F)cc1)C2
15

Hello, please tell me recorded Tmax for this one: CCc1nc2cc(Cl)ccn2c1C(=O)NCc1ccc2c(c1)CCN(Cc1cc(F)cc(F)c1)C2
40

Hello, please tell me recorded Tmax for this one: CCc1nc2ccc(Cl)cn2c1C(=O)NCc1ccc2c(c1)CN(C(C)c1ccc(OC(F)(F)F)cc1)C2 (centres undefined)
20

* * *

Hi there, I'd appreciate the recorded half-life for every entry that follows.
assay: Elimination half life in specific pathogen free ICR mouse at 25 mg/kg, po administered as single dose by HPLC analysis; type: ADME, organism-based; settings: in vivo, read-out: beta t1/2 (converted)
Numbers only here, please. The scale is min.

Hello, please tell me recorded half-life for this one: CCc1nc2ccc(Cl)cn2c1C(=O)NCc1ccc2c(c1)CCN(Cc1ccc(C(F)(F)F)cc1)C2
299

Hello, please tell me recorded half-life for this one: CCc1nc2ccc(Cl)cn2c1C(=O)NCc1ccc2c(c1)CCN(CCc1ccc(C(F)(F)F)nc1)C2
107

Hello, please tell me recorded half-life for this one: CCc1nc2ccc(Cl)cn2c1C(=O)NCc1ccc2c(c1)CN(Cc1ccc(OC(F)(F)F)cc1)C2
308

Hello, please tell me recorded half-life for this one: CCc1nc2ccc(Cl)cn2c1C(=O)NCc1ccc2c(c1)CCN(CCc1ccc(C(F)(F)F)cn1)C2
323

Hello, please tell me recorded half-life for this one: CCc1nc2ccc(Cl)cn2c1C(=O)NCc1ccc2c(c1)CCN(Cc1ccc(C(F)(F)F)cn1)C2
192

* * *

Hi there, I'd appreciate the recorded CC50 at 72 h for every entry that follows.
test: Cytotoxicity against African green monkey Vero cells assessed as reduction in cell viability after 72 hrs by MTT assay; type: cell-based; conditions: chlorocebus sabaeus
Numbers only here, please. The scale is µg/mL.

Hello, please tell me recorded CC50 at 72 h for this one: CCc1nc2ccc(Cl)cn2c1C(=O)NCc1ccc2c(c1)CCN(Cc1ccc(C)cc1)C2
51

Hello, please tell me recorded CC50 at 72 h for this one: CCc1nc2ccc(Cl)cn2c1C(=O)NCc1ccc2c(c1)CCN(Cc1ccc(OC)cc1)C2
2

Hello, please tell me recorded CC50 at 72 h for this one: CCc1nc2ccc(Cl)cn2c1C(=O)NCc1ccc2c(c1)CCN(Cc1cc(F)cc(F)c1)C2
14

Hello, please tell me recorded CC50 at 72 h for this one: O=c1nc(N2CCN(CC3CCCCC3)CC2)sc2c([N+](=O)[O-])cc(C(F)(F)F)cc12 [MACOZINONE]
31

Hello, please tell me recorded CC50 at 72 h for this one: CCc1nc2cc(Cl)ccn2c1C(=O)NCc1ccc2c(c1)CCN(Cc1cc(F)cc(F)c1)C2
48

Hello, please tell me recorded CC50 at 72 h for this one: CCc1nc2ccc(Cl)cn2c1C(=O)NCc1ccc2c(c1)CCN(Cc1ccc(C(F)(F)F)nc1)C2
7

Hello, please tell me recorded CC50 at 72 h for this one: CCc1nc2ccc(Cl)cn2c1C(=O)NCc1ccc2c(c1)CCN(CCc1ccc(C(F)(F)F)cn1)C2
48

Hello, please tell me recorded CC50 at 72 h for this one: CCc1nc2cc(Cl)ccn2c1C(=O)NCc1ccc2c(c1)CCN(Cc1ccc(C(C)(C)C)cc1)C2
14

Hello, please tell me recorded CC50 at 72 h for this one: CCc1nc2cc(Cl)ccn2c1C(=O)NCc1ccc2c(c1)CCN(Cc1ccc(OC)cc1)C2
32

* * *

assay: Elimination half life in specific pathogen free ICR mouse at 25 mg/kg, po administered as single dose by HPLC analysis; assay type: ADME, organism-based; conditions: in vivo, read-out: beta t1/2 (converted)
Hi there, I'd appreciate the recorded half-life for every entry that follows.
Numbers only here, please. The scale is h.

Hello, please tell me recorded half-life for this one: CCc1nc2ccc(Cl)cn2c1C(=O)NCc1ccc2c(c1)CCN(Cc1ccc(C(C)(C)C)cc1)C2
9.35

Hello, please tell me recorded half-life for this one: CCc1nc2ccc(Cl)cn2c1C(=O)NCc1ccc2c(c1)CN(C(C)c1ccc(OC(F)(F)F)cc1)C2 (centres undefined)
9.08

Hello, please tell me recorded half-life for this one: CCc1nc2cc(Cl)ccn2c1C(=O)NCc1ccc2c(c1)CCN(Cc1cc(F)cc(F)c1)C2
9.06

Hello, please tell me recorded half-life for this one: CCc1nc2ccc(Cl)cn2c1C(=O)NCc1ccc(N2CCC(c3ccc(OC(F)(F)F)cc3)CC2)cc1 [TELACEBEC]
18.7

* * *

target: hERG (KCNH2) (Homo sapiens); test: Inhibition of human ERG at 10 uM relative to control
Sequence (Q12809 whole entry): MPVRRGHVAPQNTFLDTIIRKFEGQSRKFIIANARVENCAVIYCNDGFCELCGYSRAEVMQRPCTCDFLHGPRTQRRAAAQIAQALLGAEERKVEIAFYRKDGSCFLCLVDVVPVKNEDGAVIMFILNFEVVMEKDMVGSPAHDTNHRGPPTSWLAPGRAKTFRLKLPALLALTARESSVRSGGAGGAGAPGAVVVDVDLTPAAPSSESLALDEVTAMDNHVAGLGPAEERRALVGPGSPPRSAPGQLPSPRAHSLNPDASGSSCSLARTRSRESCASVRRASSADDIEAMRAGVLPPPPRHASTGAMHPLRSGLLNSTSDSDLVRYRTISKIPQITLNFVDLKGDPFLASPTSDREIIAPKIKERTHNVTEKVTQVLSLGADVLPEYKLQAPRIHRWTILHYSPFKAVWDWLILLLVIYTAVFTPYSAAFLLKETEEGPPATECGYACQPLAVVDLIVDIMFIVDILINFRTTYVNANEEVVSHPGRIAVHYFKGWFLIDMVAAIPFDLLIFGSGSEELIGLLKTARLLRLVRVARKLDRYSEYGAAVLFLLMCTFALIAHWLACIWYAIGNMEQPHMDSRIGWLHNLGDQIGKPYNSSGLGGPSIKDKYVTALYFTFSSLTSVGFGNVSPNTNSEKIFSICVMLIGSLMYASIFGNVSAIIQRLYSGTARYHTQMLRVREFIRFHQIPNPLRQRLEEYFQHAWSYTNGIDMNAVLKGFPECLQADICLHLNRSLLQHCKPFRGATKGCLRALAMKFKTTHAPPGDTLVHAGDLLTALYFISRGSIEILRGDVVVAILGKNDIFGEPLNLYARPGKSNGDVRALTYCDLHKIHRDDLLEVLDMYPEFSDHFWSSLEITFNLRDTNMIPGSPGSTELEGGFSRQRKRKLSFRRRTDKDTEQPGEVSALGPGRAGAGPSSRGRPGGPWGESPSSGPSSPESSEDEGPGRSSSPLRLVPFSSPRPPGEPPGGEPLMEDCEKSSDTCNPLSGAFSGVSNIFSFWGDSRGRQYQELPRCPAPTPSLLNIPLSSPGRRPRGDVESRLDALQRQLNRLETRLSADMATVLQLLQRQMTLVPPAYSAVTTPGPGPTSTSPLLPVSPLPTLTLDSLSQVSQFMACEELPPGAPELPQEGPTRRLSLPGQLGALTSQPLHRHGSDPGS
value.type: inhibition at 10 µM
Mention the unit after the number when you answer.

Hello, please tell me recorded inhibition at 10 µM for this one: CCc1nc2ccc(Cl)cn2c1C(=O)NCc1ccc2c(c1)CCN(Cc1ccc(F)cc1)C2
60%

Hello, please tell me recorded inhibition at 10 µM for this one: O=c1nc(N2CCN(CC3CCCCC3)CC2)sc2c([N+](=O)[O-])cc(C(F)(F)F)cc12 [MACOZINONE]
41%

Hello, please tell me recorded inhibition at 10 µM for this one: CCc1nc2cc(Cl)ccn2c1C(=O)NCc1ccc2c(c1)CCN(Cc1cc(F)cc(F)c1)C2
48%

Hello, please tell me recorded inhibition at 10 µM for this one: CCc1nc2ccc(Cl)cn2c1C(=O)NCc1ccc2c(c1)CCN(Cc1ccc(C(C)(C)C)cc1)C2
31%

Hello, please tell me recorded inhibition at 10 µM for this one: CCc1nc2ccc(Cl)cn2c1C(=O)NCc1ccc2c(c1)CCN(Cc1ccc(C)cc1)C2
54%

Hello, please tell me recorded inhibition at 10 µM for this one: CCc1nc2ccc(Cl)cn2c1C(=O)NCc1ccc2c(c1)CN(C(C)c1ccc(OC(F)(F)F)cc1)C2 (centres undefined)
50%

Hello, please tell me recorded inhibition at 10 µM for this one: CCc1nc2ccc(Cl)cn2c1C(=O)NCc1ccc(N2CCC(c3ccc(OC(F)(F)F)cc3)CC2)cc1 [TELACEBEC]
50%

Hello, please tell me recorded inhibition at 10 µM for this one: CCc1nc2ccc(Cl)cn2c1C(=O)NCc1ccc2c(c1)CCN(Cc1ccc(C(F)(F)F)cc1)C2
50%

Hello, please tell me recorded inhibition at 10 µM for this one: CCc1nc2ccc(Cl)cn2c1C(=O)NCc1ccc2c(c1)CCN(CCc1ccc(C(F)(F)F)cn1)C2
13%

Hello, please tell me recorded inhibition at 10 µM for this one: CCc1nc2ccc(Cl)cn2c1C(=O)NCc1ccc2c(c1)CN(Cc1ccc(OC(F)(F)F)cc1)C2
50%

Hello, please tell me recorded inhibition at 10 µM for this one: CCc1nc2cc(Cl)ccn2c1C(=O)NCc1ccc2c(c1)CCN(Cc1ccc(OC)cc1)C2
64%

Hello, please tell me recorded inhibition at 10 µM for this one: CCc1nc2cc(Cl)ccn2c1C(=O)NCc1ccc2c(c1)CCN(Cc1ccc([N+](=O)[O-])o1)C2
71%

Hello, please tell me recorded inhibition at 10 µM for this one: CCc1nc2ccc(Cl)cn2c1C(=O)NCc1ccc2c(c1)CCN(CCc1ccc(C(F)(F)F)nc1)C2
44%

Hello, please tell me recorded inhibition at 10 µM for this one: CCc1nc2ccc(Cl)cn2c1C(=O)NCc1ccc2c(c1)CCN(Cc1ccc(C(F)(F)F)cn1)C2
25%
